Would you kindly list viscosity for each of these compounds?
conditions: 353.15 K; 20000 kPa; Liquid; Vibrating wire viscometry
Numbers after ± are expanded uncertainties.

COC(=O)CCCCC(=O)OC [dimethyl 1,6-hexanedioate] | 1.317 ± 0.028 mPa·s

Each of the following entries comes with a recorded value; kindly state viscosity for each.
1. CCCOC(=O)CCCCC(=O)OCCC [dipropyl hexanedioate]
2. CCCCOC(=O)CCCCC(=O)OCCCC [dibutyl hexanedioate]
3. CCOC(=O)CCCCC(=O)OCC [diethyl hexanedioate]

["1.736 ± 0.04 mPa·s", "2.031 ± 0.043 mPa·s", "1.411 ± 0.03 mPa·s"]

* * *

settings: 363.15 K; 30000 kPa; Liquid; Vibrating wire viscometry
± gives the expanded uncertainty stated by the source.
experimentalReadout: viscosity

Guide cases for viscosity, answers given:
CCOC(=O)CCCCC(=O)OCC [diethyl hexanedioate] | 1.343 ± 0.029 mPa·s
CCCOC(=O)CCCCC(=O)OCCC [dipropyl hexanedioate] | 1.649 ± 0.038 mPa·s
COC(=O)CCCCC(=O)OC [dimethyl 1,6-hexanedioate] | 1.244 ± 0.027 mPa·s

Give the value of viscosity reported for the following: CCCCOC(=O)CCCCC(=O)OCCCC [dibutyl hexanedioate]
1.93 ± 0.041 mPa·s

* * *

details: 353.15 K; 5000 kPa; Liquid; Vibrating wire viscometry
experimentalReadout: viscosity (mPa·s)
One number for each entry, in mPa·s.

Guide cases for viscosity, answers given:
COC(=O)CCCCC(=O)OC [dimethyl 1,6-hexanedioate] | 1.174
CCOC(=O)CCCCC(=O)OCC [diethyl hexanedioate] | 1.233
CCCCOC(=O)CCCCC(=O)OCCCC [dibutyl hexanedioate] | 1.746

Query compound follows.
Give the value of viscosity reported for the following: CCCOC(=O)CCCCC(=O)OCCC [dipropyl hexanedioate]
1.5

* * *

conditions: 313.15 K; 40000 kPa; Liquid; Vibrating wire viscometry
Would you kindly list viscosity for each of these compounds?
Answers are plain numbers, in mPa·s.

Guide cases for viscosity, answers given:
CCCOC(=O)CCCCC(=O)OCCC [dipropyl hexanedioate] | 4.293
COC(=O)CCCCC(=O)OC [dimethyl 1,6-hexanedioate] | 2.955
CCOC(=O)CCCCC(=O)OCC [diethyl hexanedioate] | 3.251

Query compound follows.
Give the value of viscosity reported for the following: CCCCOC(=O)CCCCC(=O)OCCCC [dibutyl hexanedioate]
5.153

* * *

settings: 353.15 K; 15000 kPa; Liquid; Vibrating wire viscometry
experimentalReadout: viscosity (mPa·s)
Numbers only, in mPa·s.

COC(=O)CCCCC(=O)OC [dimethyl 1,6-hexanedioate] | 1.269

Each of the following entries comes with a recorded value; kindly state viscosity for each.
1. CCCCOC(=O)CCCCC(=O)OCCCC [dibutyl hexanedioate]
2. CCCOC(=O)CCCCC(=O)OCCC [dipropyl hexanedioate]
3. CCOC(=O)CCCCC(=O)OCC [diethyl hexanedioate]

1.933
1.654
1.351

* * *

details: 343.15 K; 5000 kPa; Liquid; Vibrating wire viscometry
Would you kindly list viscosity for each of these molecules?
Give bare numbers, in mPa·s.

CCCCOC(=O)CCCCC(=O)OCCCC [dibutyl hexanedioate] | 2.035

Each of the following entries comes with a recorded value; kindly state viscosity for each.
1. COC(=O)CCCCC(=O)OC [dimethyl 1,6-hexanedioate]
2. CCOC(=O)CCCCC(=O)OCC [diethyl hexanedioate]
3. CCCOC(=O)CCCCC(=O)OCCC [dipropyl hexanedioate]

1: 1.346; 2: 1.419; 3: 1.744
